- System: Enterobacter cloacae
- Assay name: Ratio of Kcat to Km of Enterobacter cloacae beta-lactamase OXA-1
For each entry below, report its Ratio value.
Answers are plain numbers, in s⁻¹ M⁻¹.

Examples with their reported Ratio follow.
CC(=O)OCC1=C(C(=O)O)N2C(=O)[C@@H](NO)[C@H]2SC1    66
CC(=O)OCC1=C(C(=O)O)N2C(=O)/C(=N/O)[C@H]2SC1    88
CC(=O)OCC1=C(C(=O)O)N2C(=O)[C@@H](NC=O)[C@H]2SC1    3160
CC(=O)OCC1=C(C(=O)O)N2C(=O)[C@@H](N(O)C(=O)Cc3ccccc3)[C@H]2SC1    2020
CC(=O)OCC1=C(C(=O)O)N2C(=O)[C@@H](N(O)C=O)[C@H]2SC1    75

Kindly consider the entry below.
Query: Any idea what Ratio was measured for CC(=O)OCC1=C(C(=O)O)N2C(=O)/C(=N/O)[C@H]2S(=O)(=O)C1 ?
Reply: 990
